assay: folding enthalpy; higher = less favourable; fluorescence melt of hairpins on a sequencing array, two-state fit; conditions: sodium 0.088 M
# folding enthalpy >= -100 kJ/mol gives MET, anything below gives NOT MET

{"columns": ["itemSequence", "categoryLabel"],
 "data": [
  ["GATCTGGCTGCAGATC ((((((....))))))", "NOT MET"],
  ["GGTCACCGAAAGGTACC (((.(((....))))))", "MET"],
  ["GTAACACGAAAGTGTAC (((.(((....))))))", "MET"],
  ["GATTGAGGAAACTCAATC (((((((....)))))))", "NOT MET"],
  ["GGGCACGGAAACACGCCC ((((..(....)..))))", "NOT MET"],
  ["GTCTCCGAAAGGACCGAC ((((((....)))..)))", "MET"],
  ["GATCGGCGTTCCGATC ((((((....))))))", "NOT MET"],
  ["GATCCTTCATAGGATC ((((((....))))))", "NOT MET"],
  ["GGTCTCGAAAGAGAAACC ((((((....)))..)))", "MET"],
  ["GGAGACGAAAGTCGTTCC ((((((....)))..)))", "MET"],
  ["GCATTGCGAAAGCTTTGC (((..((....))..)))", "MET"],
  ["GTTTGTGGAAACGCAAAC (((((.(....).)))))", "NOT MET"],
  ["GATCCAATTTTGGATC ((((((....))))))", "NOT MET"],
  ["CGACCGGAAACGGCTCG ((((((....))).)))", "NOT MET"],
  ["GCGCGAGCGAAAGCTCGC (((..(((....))))))", "MET"],
  ["GATCTAATTATAGATC ((((((....))))))", "NOT MET"],
  ["GATCTCCCCTGAGATC ((((((....))))))", "NOT MET"],
  ["GATCCAATTTGGATC ((((((...))))))", "NOT MET"],
  ["GGAGCTGGAAACGGCTTC (.(((.(....).))).)", "NOT MET"],
  ["GATCTGACGCCAGATC ((((((....))))))", "NOT MET"],
  ["GCAGACGGAAACGTCTAC (.(((((....))))).)", "MET"],
  ["GGCGGTCGAAAGACGCC (((.(((....))))))", "NOT MET"],
  ["GTCCCACCGAAAGGTGAC (((..(((....))))))", "MET"]
]}

----------
assay: melting temperature; fluorescence melt of hairpins on a sequencing array, two-state fit, raised by 9.35 °C to match UV melts; conditions: sodium 0.088 M
Below: a set of entries, each annotated with reported Tm.

{"columns": ["itemSequence", "Tm [°C]"],
 "data": [
  ["GGGCGCGAAAGCGATCCC ((((((....)))..)))", 58.5],
  ["GACGACGGAAACGTCGCC (.(((((....))))).)", 53.1],
  ["GCGCCAGGAAACTGGTGC ((.((((....)))).))", 65],
  ["GGGGCTGCGAAAGCACCC (((..(((....))))))", 62.5],
  ["GGCCTTCCGAAAGGAGCC (((..(((....))))))", 38.9],
  ["GTCCGGGGAAACCCGGGC (.(((((....))))).)", 65],
  ["GCGTCGCGAAAGCACCGC (((..((....))..)))", 53.9],
  ["GATCATTCTATGATC ((((((...))))))", 50.7],
  ["GATCGATCATTCGATC ((((((....))))))", 53.7],
  ["GGGAGTCGAAAGACCCC (((.(((....))))))", 56.7],
  ["GCGTGAGGAAACTCATGC ((.((((....)))).))", 53.4],
  ["CGATCGGAAACGAACTCG ((((((....)))..)))", 24.4],
  ["GCCCAGCCGAAAGGCGGC (((..(((....))))))", 62.4],
  ["GTGGCCGAAAGGCCCCAC ((((((....)))..)))", 38.1],
  ["GAATCGGGAAACCGATCC (.(((((....))))).)", 39],
  ["GATCATGCTTATGATC ((((((....))))))", 48],
  ["GCTAGTGGAAACGCTAGC (((((.(....).)))))", 52.3],
  ["GTCTAAGGAAACTTAGGC (.(((((....))))).)", 38.1],
  ["GCGCGGCGAAAGCCTTGC ((..(((....)))..))", 46.1],
  ["GAGGCCGGAAACGACCTC ((((.((....)).))))", 52.9],
  ["GCAAAGCGAAAGCTGTGC (((.(((....))).)))", 54.4],
  ["GCCTACACGAAAGTGGGC (((..(((....))))))", 50.5],
  ["GATCCAGCTATGGATC ((((((....))))))", 58.8],
  ["CGCGGATTGCTCCGCG ((((((....))))))", 64.9],
  ["GATCCAGACGTGGATC ((((((....))))))", 53.2],
  ["GCGTGGCGAAAGCGCCGC (((..((....))..)))", 56.2],
  ["GGGGACGAAAGTCCTCCC ((((((....)))..)))", 48.3],
  ["GCAAGCGAAAGCTCTTGC ((((((....)))..)))", 43.6],
  ["GATCGCAAACGCGATC ((((((....))))))", 64.8]
]}

----------
Reported folding enthalpy by item:
experiment: folding enthalpy; higher = less favourable; fluorescence melt of hairpins on a sequencing array, two-state fit; conditions: sodium 0.088 M

{"columns": ["itemSequence", "scaleUnit", "folding enthalpy"],
 "data": [
  ["GATCGAAGAGTCGATC ((((((....))))))", "kcal/mol", -31.6],
  ["GCTGCAGGAAACTGCGGC ((.((((....)))).))", "kcal/mol", -41.5],
  ["GATCAATCGATTGATC ((((((....))))))", "kcal/mol", -53.5],
  ["CGGGGGCGGAAACGCCCG (((..(((....))))))", "kcal/mol", -6.12],
  ["GGAGTTCGAAAGAATTCC (((.(((....))).)))", "kcal/mol", -39.8],
  ["GAGCTCGGAAACGGGTTC ((.(.((....)).).))", "kcal/mol", -14.2],
  ["GATTGTACGAAAGTAATC (((..(((....))))))", "kcal/mol", -18.7],
  ["GATCCCGGGTGGGATC ((((((....))))))", "kcal/mol", -36],
  ["GCATACGCGAAAGCGTGC (((..(((....))))))", "kcal/mol", -10.8],
  ["GGCAAATCGAAAGATGCC (((..(((....))))))", "kcal/mol", -29.8],
  ["GTCGTCTCGAAAGAGGAC (((..(((....))))))", "kcal/mol", -21.6],
  ["GTAGGTGCGAAAGCATAC (((..(((....))))))", "kcal/mol", -8.27],
  ["GCCGCCCCGAAAGGGGGC (((..(((....))))))", "kcal/mol", -6.87],
  ["GATCGTAGTCACGATC ((((((....))))))", "kcal/mol", -36.1],
  ["GGAGCGTCGAAAGACTCC (((..(((....))))))", "kcal/mol", -13.7],
  ["GTCTCCGAAAGGATCGAC ((((((....)))..)))", "kcal/mol", -14.7],
  ["GAATACGCGAAAGCGTTC (((..(((....))))))", "kcal/mol", -7.08],
  ["GTATACGAAAGTATAC ((((((....))))))", "kcal/mol", -28.4],
  ["GATCGAGAATTCGATC ((((((....))))))", "kcal/mol", -39.7],
  ["GCTGACGAAAGTCACAGC ((((((....)))..)))", "kcal/mol", -15.4],
  ["GTGGTCGAAAGACATCAC ((((((....)))..)))", "kcal/mol", -14.3],
  ["GATCTCACAAGAGATC ((((((....))))))", "kcal/mol", -38.7],
  ["GGGGTCGGAAACGACTCC ((.((((....)))).))", "kcal/mol", -34.4],
  ["GCGTTCACGAAAGTGCGC (((..(((....))))))", "kcal/mol", -19.2],
  ["GATCGTGGCGACGATC ((((((....))))))", "kcal/mol", -29.9],
  ["GCACCCGGAAACGGGCGC ((.((((....)))).))", "kcal/mol", -38],
  ["GCACTGCCGAAAGGCTGC (((..(((....))))))", "kcal/mol", -13.4],
  ["GATCTTGACTAAGATC ((((((....))))))", "kcal/mol", -44]
]}

FYI, the data here is from the array DNA melting data of Ke et al. (doi:10.1101/2024.01.08.574731).
